Below, each entry is listed alongside its reported GI50.
Tested on: UACC-257
Measurement description: NCI tumour cell line growth inhibition, 48 h
Calls of active or inactive are those of the source. No stated cut-off is given here; in the data, active = GI50 up to about 1.1 µM and inactive = higher.
Parameter measured: GI50

* Nn1c(CCCCCCCCc2nnc(COc3ccc(Cl)cc3Cl)n2N)nnc1COc1ccc(Cl)cc1Cl | 61.5 µM (inactive)
* CC(C)(C)OC(=O)NCC(=O)NC1C/C(=N\O)c2sccc21 (configuration not stated) | > 100 µM (inactive)
* CCOC(=O)Cc1ccc2c(c1O)C(=O)c1c(ccc(CC(=O)OCC)c1O)C2=O | > 100 µM (inactive)
* NS(=O)(=O)c1ccc(NC(=O)c2cccc3c(Nc4ccc(S(N)(=O)=O)cc4)c4ccccc4nc23)cc1 | 32.9 µM (inactive)
* COC(=O)c1c(C)cccc1/C=C1/Cc2c(C)cccc2C1=O | 3.1 µM (inactive)
* CC1CN(c2ccc(Cl)cc2)CC(C)OC(=O)O1 (configuration not stated) | > 100 µM (inactive)
* N[C@H](C(=O)O)[C@@H]1CC(Cl)=NO1 [ACIVICIN] | 4.8 µM (inactive)
* COC(=O)CC1C2(C)C3=C(C)C(c4ccoc4)CC3OC2C2OC(=O)C3(C)C=CC(=O)C1(C)C23 (configuration not stated) | 1.95 µM (inactive)
* Cc1cc(C)nc(NS(=O)(=O)c2ccc(Nc3nncc(=O)n3N)cc2)n1 | 19.8 µM (inactive)
* OCCN(CCO)CCn1cnc2c(NCc3ccccc3)ncnc21 | > 100 µM (inactive)
* Cc1ccc(NC(=O)COC(=O)c2cccc3c(=O)c4ccccc4[nH]c23)cc1 | 39.9 µM (inactive)
* CCOC(=O)c1ccc(-c2cccs2)n1C | > 79.1 µM (inactive)
* Cc1nn(C(=O)CC(=O)Nc2ccc(Cl)cc2)c(C)c1/N=N/c1ccccc1C(=O)O | > 100 µM (inactive)
* O=C(Nc1ccc(-c2cn3ccccc3n2)cc1)c1cc(Br)ccc1O | > 100 µM (inactive)
* CC(C)(C)OC(=O)N1C(C2=COc3ccccc3O2)=COc2ccccc21 | 23.9 µM (inactive)
* COC(=O)/C(=N\NC(C)(C)C)C(C(=O)OC)C(=O)C(=O)Nc1cc(Cl)ccc1Cl (configuration not stated) | > 100 µM (inactive)
* CN(C)C=[N+]=[N-] | > 100 µM (inactive)
* Nc1ncc(CN2CCOCC2)c(-c2ccccc2O)n1 | > 100 µM (inactive)
* O=C(C/N=C(\CN(c1ccccc1)c1ccccc1)Oc1c(Cl)cc(Cl)cc1Cl)N1c2ccccc2Sc2ccccc21 | > 100 µM (inactive)
* CC1=CC(=O)/C(=C/NC(N)=S)C(=O)O1 | > 100 µM (inactive)
* CCOC(=O)NC(Nc1ncccn1)(C(=O)OCC)C(F)(F)F (configuration not stated) | > 100 µM (inactive)
* CCOC(=O)C(C)c1c(C(=O)c2ccc(C)nc2)c2ccccc2n1C (configuration not stated) | > 100 µM (inactive)

Where do these numbers come from? They come from ChEMBL document CHEMBL1201862.
